growth for assorted compounds
test system: NCI-H460 lung; test: NCI-60 one-dose screen, 48 h (100 = growth as untreated, 0 = no growth, -100 = all killed); conditions: 10 µM
About 83,000 compounds went through this panel and 20% of them were active in at least one assay; those are over-represented in the sample as a whole.
# unit: % | format: bare number

Examples from the recorded data:
Consider the compound CCOc1ccccc1/C=N\N=C\c1ccccc1O and give its measured growth.
107

Next compound: Nc1ncnc2c1ncn2C1(CO)OCC(O)C(O)C1O (stereo unspecified)
107

Also COc1ccc(Cc2cnc(N)nc2N)cc1OC ?
105

---
Quick one: growth for COc1ccc(-c2nnc(SCC(=O)Nc3ccc(C(=O)/C=C/c4ccccc4)cc3)n2-c2ccccc2)cc1OC ?
37.1

Now consider CC(=O)/C(=C/c1ccc(Br)cc1)C(=O)c1ccccc1 and answer again.
103

Record: COc1cccc(CNc2cccc3cn[nH]c23)c1O
111
